B1: tRNA (parent)
chain: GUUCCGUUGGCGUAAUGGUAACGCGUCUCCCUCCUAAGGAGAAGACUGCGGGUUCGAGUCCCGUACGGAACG

# Variants of: B1
# METHOD: yeast fitness, log relative to wild type (ln ratio); higher = fitter; tRNA-Arg(CCU), competitive growth, 37 C, 1 M NaCl
Each entry falls in a class defined on yeast fitness (ln); the bands are low = under -0.2, mid = from -0.2 up to -0.1, high = -0.1 and over

[Q] Bin this entry: GGUCCAUUGGCGUAAUGGUAACGCGUCUCCCUCCUAAGGAGAAGACUGCGGGUUCGAGUCCCGUACGGGACG [U2G G6A A69G]
[A] mid

[Q] Bin this entry: GUUCCAUUGGCGUAAUGGUAACGCGUUUCCCUCCUAAGGAGACGACUGCGGGUUCGAGUCCCGUAAGGGUUG [G6A C27U A43C C66A A69G A70U C71U]
[A] low

[Q] Bin this entry: AUUCCGUUGGCGUAAUGGUAACGCGUCUCCCUCCUAAGGAGACGAUUGCGGGUUCGAGUCCCGUACGGAGCG [G1A A43C C46U A70G]
[A] mid

[Q] Bin this entry: GUUCCGUUGGCGUAAUGGUAACGCGUUUCCCUCCUAAGGAGACGACUGCGGGUUCGAGUCCCGUAAGGGUCG [C27U A43C C66A A69G A70U]
[A] low

[Q] Bin this entry: GUUCCUUUGGCGUAAUGGUAACGCGUCUCCCUCCUAAGGAGAAGAUUGCGGGUUCGAGUCCCGUAAGGGAUG [G6U C46U C66A A69G C71U]
[A] high

[Q] Bin this entry: AUUCCGUUGGCGUAAUGGUAACGCGUCUCCCUCCUAAGGAGACGAUUGCGGGUUCGAGUCCCGUACGGAACG [G1A A43C C46U]
[A] high

[Q] Bin this entry: AUUCCGUUGGCGUAAUGGUAACGCGUCUCCCUCCUAAGGAGACGACUGCGGGUUCGAGUCCCGUACGGAAUG [G1A A43C C71U]
[A] high

[Q] Bin this entry: GGUCCAUUGGCGUAAUGGUAACGCGUUUCCCUCCUAAGGAGACGAUUGCGGGUUCGAGUCCCGUACGGAUCG [U2G G6A C27U A43C C46U A70U]
[A] mid

[Q] Bin this entry: AGUCCUUUGGCGUAAUGGUAACGCGUUUCCCUCCUAAGGAGAAGACUGCGGGUUCGAGUCCCGUACGGGGUG [G1A U2G G6U C27U A69G A70G C71U]
[A] low

[Q] Bin this entry: GGUCCUUUGGCGUAAUGGUAACGCGUUUCCCUCCUAAGGAGAAGACUGCGGGUUCGAGUCCCGUAUGGAGUG [U2G G6U C27U C66U A70G C71U]
[A] low

[Q] Bin this entry: GGUCCUUUGGCGUAAUGGUAACGCGUCUCCCUCCUAAGGAGACGACUGCGGGUUCGAGUCCCGUAUGGAAUG [U2G G6U A43C C66U C71U]
[A] low

[Q] Bin this entry: AGUCCUUUGGCGUAAUGGUAACGCGUUUCCCUCCUAAGGAGACGAUUGCGGGUUCGAGUCCCGUAAGGAACG [G1A U2G G6U C27U A43C C46U C66A]
[A] low

[Q] Bin this entry: AGUCCGUUGGCGUAAUGGUAACGCGUUUCCCUCCUAAGGAGAAGAUUGCGGGUUCGAGUCCCGUAUGGAGUG [G1A U2G C27U C46U C66U A70G C71U]
[A] low

[Q] Bin this entry: ACUCCUUUGGCGUAAUGGUAACGCGUUUCCCUCCUAAGGAGACGAUUGCGGGUUCGAGUCCCGUAAGGAGUG [G1A U2C G6U C27U A43C C46U C66A A70G C71U]
[A] high

[Q] Bin this entry: GGUCCGUUGGCGUAAUGGUAACGCGUCUCCCUCCUAAGGAGACGAUUGCGGGUUCGAGUCCCGUAUGGAGCG [U2G A43C C46U C66U A70G]
[A] high

[Q] Bin this entry: GCUCCUUUGGCGUAAUGGUAACGCGUCUCCCUCCUAAGGAGACGAUUGCGGGUUCGAGUCCCGUAAGGAGCG [U2C G6U A43C C46U C66A A70G]
[A] high

[Q] Bin this entry: GUUCCUUUGGCGUAAUGGUAACGCGUUUCCCUCCUAAGGAGACGACUGCGGGUUCGAGUCCCGUAUGGAACG [G6U C27U A43C C66U]
[A] low

[Q] Bin this entry: GGUCCUUUGGCGUAAUGGUAACGCGUUUCCCUCCUAAGGAGAAGACUGCGGGUUCGAGUCCCGUAAGGAGCG [U2G G6U C27U C66A A70G]
[A] low

[Q] Bin this entry: GCUCCGUUGGCGUAAUGGUAACGCGUCUCCCUCCUAAGGAGACGAUUGCGGGUUCGAGUCCCGUACGGGAUG [U2C A43C C46U A69G C71U]
[A] high

[Q] Bin this entry: AGUCCAUUGGCGUAAUGGUAACGCGUUUCCCUCCUAAGGAGACGACUGCGGGUUCGAGUCCCGUAUGGGGUG [G1A U2G G6A C27U A43C C66U A69G A70G C71U]
[A] low

[Q] Bin this entry: AGUCCAUUGGCGUAAUGGUAACGCGUUUCCCUCCUAAGGAGACGACUGCGGGUUCGAGUCCCGUACGGGUUG [G1A U2G G6A C27U A43C A69G A70U C71U]
[A] low

[Q] Bin this entry: GUUCCGUUGGCGUAAUGGUAACGCGUCUCCCUCCUAAGGAGACGACUGCGGGUUCGAGUCCCGUACGGAAUG [A43C C71U]
[A] high

[Q] Bin this entry: GUUCCUUUGGCGUAAUGGUAACGCGUUUCCCUCCUAAGGAGACGACUGCGGGUUCGAGUCCCGUAUGGGUUG [G6U C27U A43C C66U A69G A70U C71U]
[A] low

[Q] Bin this entry: GCUCCGUUGGCGUAAUGGUAACGCGUUUCCCUCCUAAGGAGAAGAUUGCGGGUUCGAGUCCCGUAAGGAUUG [U2C C27U C46U C66A A70U C71U]
[A] mid

[Q] Bin this entry: AUUCCAUUGGCGUAAUGGUAACGCGUUUCCCUCCUAAGGAGAAGAUUGCGGGUUCGAGUCCCGUAAGGAAUG [G1A G6A C27U C46U C66A C71U]
[A] mid

[Q] Bin this entry: AGUCCGUUGGCGUAAUGGUAACGCGUUUCCCUCCUAAGGAGAAGAUUGCGGGUUCGAGUCCCGUAAGGAUUG [G1A U2G C27U C46U C66A A70U C71U]
[A] mid

[Q] Bin this entry: ACUCCUUUGGCGUAAUGGUAACGCGUCUCCCUCCUAAGGAGAAGAUUGCGGGUUCGAGUCCCGUAUGGAGCG [G1A U2C G6U C46U C66U A70G]
[A] low

[Q] Bin this entry: GGUCCGUUGGCGUAAUGGUAACGCGUCUCCCUCCUAAGGAGAAGACUGCGGGUUCGAGUCCCGUAAGGAAUG [U2G C66A C71U]
[A] mid

[Q] Bin this entry: GUUCCUUUGGCGUAAUGGUAACGCGUCUCCCUCCUAAGGAGACGACUGCGGGUUCGAGUCCCGUACGGGUCG [G6U A43C A69G A70U]
[A] low

[Q] Bin this entry: AGUCCGUUGGCGUAAUGGUAACGCGUCUCCCUCCUAAGGAGACGAUUGCGGGUUCGAGUCCCGUACGGGACG [G1A U2G A43C C46U A69G]
[A] high

[Q] Bin this entry: ACUCCUUUGGCGUAAUGGUAACGCGUUUCCCUCCUAAGGAGAAGAUUGCGGGUUCGAGUCCCGUAUGGGGUG [G1A U2C G6U C27U C46U C66U A69G A70G C71U]
[A] low

[Q] Bin this entry: GCUCCGUUGGCGUAAUGGUAACGCGUUUCCCUCCUAAGGAGAAGACUGCGGGUUCGAGUCCCGUAAGGGUCG [U2C C27U C66A A69G A70U]
[A] mid

[Q] Bin this entry: GGUCCUUUGGCGUAAUGGUAACGCGUCUCCCUCCUAAGGAGACGAUUGCGGGUUCGAGUCCCGUACGGAUCG [U2G G6U A43C C46U A70U]
[A] low

[Q] Bin this entry: GCUCCAUUGGCGUAAUGGUAACGCGUCUCCCUCCUAAGGAGACGACUGCGGGUUCGAGUCCCGUACGGAUUG [U2C G6A A43C A70U C71U]
[A] mid

[Q] Bin this entry: GCUCCUUUGGCGUAAUGGUAACGCGUUUCCCUCCUAAGGAGAAGACUGCGGGUUCGAGUCCCGUAUGGAGCG [U2C G6U C27U C66U A70G]
[A] low

[Q] Bin this entry: AGUCCUUUGGCGUAAUGGUAACGCGUCUCCCUCCUAAGGAGACGACUGCGGGUUCGAGUCCCGUAAGGAAUG [G1A U2G G6U A43C C66A C71U]
[A] low

[Q] Bin this entry: AGUCCAUUGGCGUAAUGGUAACGCGUUUCCCUCCUAAGGAGAAGACUGCGGGUUCGAGUCCCGUAUGGAUUG [G1A U2G G6A C27U C66U A70U C71U]
[A] mid

[Q] Bin this entry: ACUCCGUUGGCGUAAUGGUAACGCGUUUCCCUCCUAAGGAGAAGAUUGCGGGUUCGAGUCCCGUAUGGAGUG [G1A U2C C27U C46U C66U A70G C71U]
[A] high

Where do these numbers come from? They come from the RNAGym collection of RNA variant scans (doi:10.1038/s41586-018-0170-7).
